// data source = patent US20030059862A1

Entries and their measured IC50 follow.
Molecular target: T1, biotinylated APRIL (Homo sapiens (Human), UniProt O75888 105-250, biotinylated using NHS-biotin at a molar ratio of 20:1 biotin:APRIL)
T1 construct: also called bio-APRIL
T1 sequence: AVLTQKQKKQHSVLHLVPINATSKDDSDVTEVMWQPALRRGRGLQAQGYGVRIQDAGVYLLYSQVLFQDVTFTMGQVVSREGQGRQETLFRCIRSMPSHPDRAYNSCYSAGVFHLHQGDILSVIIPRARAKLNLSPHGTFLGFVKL
Assay: scFv inhibition of bio-APRIL (50 ng/ml) binding to coated TACI fusion protein, streptavidin-DELFIA; partial inhibition
Express it in nM; write the number only.

Previously resolved entries follow.
binder | IC50 [nM]
A030D09 (scFv) scFv: QVQLQQSGAEVKKPGSSVKVSCKTSGGAFSHYAIHWVRLAPGQGLEWMGDIIPVYGSTTYAQKFQDRVTISADESTSTAYMELSSLRSEDTAVYYCARSWYYDILTGYWDYYYMDVWGKGTLVTVSSGGGGSGGGGSGGGGSSELTQDPAVSVALGQTVRITCQGDSLRSYYASWYQQKPGQAPVLVIYGKNNRPSGIPDRFSGSSSGNTASLTITGAQAEDEADYYCNSRDSSGNHVVFGGGTKLTVLG | 150
A027A11 (scFv) scFv: QVQLQQSGAEVKKPGSSVKVSCKASGGTFSTYAITWVRQAPGQGLEWMGDIIPVFGIPNYAQMFQDRVTITADESTSTAYLELNSLGAEDTAVYYCARGSQAFEIWGKGTTVTVSSGGGGSGGGGSGGGGSQSVLTQPASVSGSPGQSITISCTGTSSDVGGYNYVSWYQQHPGKAPKLMIYEGSKRPSGVSNRFSGSKSGNTASLTISGLQAEDEADYYCSSYTTRSTRVFGGGTKLTVLG | 5.6

Now look at this one.
Input line: Consider the binder shown here: A027B01 (scFv) scFv: QVQLLQSAAEVKKPGSSVKVSCKTSGGTFRNHAISWVRQAPGQGLEWMGGIIPIFGTANYAQKFQGRVTITADESTSTAYMELSSLRSEDTAVYYCARGISAGMDVWGRGTLVTVSSGGGGSGGGGSGGGGSDIQMTQSPSFLSASIGDRVTITCRASEGIYHWLAWYQQKPGKAPKLLIYKASSLASGAPSRFSGSGSGTDFTLTISSLQPDDFATYYCQQYSNYPLTFGGGTKLEIKR What is its recorded IC50?
Output line: 94
